tested.system: Jak2 (UniProt O60674)
Sequence (O60674 whole entry, looked up): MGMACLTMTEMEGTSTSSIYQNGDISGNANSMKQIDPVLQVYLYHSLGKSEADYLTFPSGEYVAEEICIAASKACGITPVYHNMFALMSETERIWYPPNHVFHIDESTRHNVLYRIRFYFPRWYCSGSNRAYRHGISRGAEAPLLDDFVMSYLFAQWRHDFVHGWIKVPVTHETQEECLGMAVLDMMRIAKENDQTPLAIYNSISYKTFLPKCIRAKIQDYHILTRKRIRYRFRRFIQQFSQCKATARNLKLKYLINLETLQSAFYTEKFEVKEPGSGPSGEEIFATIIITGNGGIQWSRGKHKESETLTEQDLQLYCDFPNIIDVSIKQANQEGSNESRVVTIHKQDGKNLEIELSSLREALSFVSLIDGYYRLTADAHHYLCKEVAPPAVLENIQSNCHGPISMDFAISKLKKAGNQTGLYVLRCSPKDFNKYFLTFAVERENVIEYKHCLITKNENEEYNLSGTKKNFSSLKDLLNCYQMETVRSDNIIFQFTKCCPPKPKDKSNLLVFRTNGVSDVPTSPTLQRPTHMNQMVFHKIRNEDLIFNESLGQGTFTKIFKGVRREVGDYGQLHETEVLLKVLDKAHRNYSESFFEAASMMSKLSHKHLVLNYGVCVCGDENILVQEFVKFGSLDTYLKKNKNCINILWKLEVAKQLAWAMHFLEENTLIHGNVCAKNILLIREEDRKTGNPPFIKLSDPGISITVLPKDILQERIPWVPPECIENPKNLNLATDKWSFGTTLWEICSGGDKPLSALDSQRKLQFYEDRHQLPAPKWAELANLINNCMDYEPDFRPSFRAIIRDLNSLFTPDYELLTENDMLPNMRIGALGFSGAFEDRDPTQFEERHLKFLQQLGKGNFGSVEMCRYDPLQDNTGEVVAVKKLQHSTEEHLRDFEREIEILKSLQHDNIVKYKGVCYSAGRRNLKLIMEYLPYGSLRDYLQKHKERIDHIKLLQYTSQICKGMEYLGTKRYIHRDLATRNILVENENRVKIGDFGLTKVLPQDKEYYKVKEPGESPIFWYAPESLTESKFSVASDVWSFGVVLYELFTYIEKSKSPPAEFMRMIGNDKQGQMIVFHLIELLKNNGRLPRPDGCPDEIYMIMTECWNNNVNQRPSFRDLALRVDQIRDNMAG
test.details: phosphorylation enrichment, bacterial display (enrichment ratio); higher = better substrate or ligand; peptides without Tyr show the background
I would appreciate it if you labelled entries Condition met when phosphorylation enrichment is 0.7 or higher, otherwise Condition not met.

As a guide, the following entries are already answered.
# sequence.text, tested.system, category.label
rows = [
    ("REAMEYLESKQ [BTK_Y511_C506R]", "Jak2 (UniProt O60674)", "Condition met"),
    ("TFAVSYLPDMS [FLNC_Y1602_T1599A_YF]", "Jak2 (UniProt O60674)", "Condition met"),
    ("PSDLLYILDIQ [ITGA2B_Y845]", "Jak2 (UniProt O60674)", "Condition met"),
    ("FADIAYNFRHR [PAH_Y166_G171R_YF]", "Jak2 (UniProt O60674)", "Condition not met"),
    ("VDSNPYSRLMA [UBA5_Y53]", "Jak2 (UniProt O60674)", "Condition not met"),
    ("GIVEDYRPTFY [ACVRL1_Y421_P424T]", "Jak2 (UniProt O60674)", "Condition not met"),
    ("ENGPFYTSFPP [GDAP2_Y488_YF]", "Jak2 (UniProt O60674)", "Condition met"),
    ("FFCRWYRNRKS [EREG_Y144_YF]", "Jak2 (UniProt O60674)", "Condition not met"),
]

## Input Tell me whether phosphorylation enrichment is at least 0.7 here: TLQSMSGCDVG [HLA-B_Y123_Y123S]
## Output Condition met

## Input Tell me whether phosphorylation enrichment is at least 0.7 here: VSTKVYKRFPS [BEST1_Y148_A146K]
## Output Condition not met

## Input Tell me whether phosphorylation enrichment is at least 0.7 here: HLLRIYFDITD [MMP27_Y307_W304L_YF]
## Output Condition met

## Input Tell me whether phosphorylation enrichment is at least 0.7 here: SVVVPYEPPEL [TP53_Y220_V225L]
## Output Condition met

## Input Tell me whether phosphorylation enrichment is at least 0.7 here: PDMHSYMVRFN [GRIN2D_Y732_YF]
## Output Condition met

## Input Tell me whether phosphorylation enrichment is at least 0.7 here: HLPAGYIIPLQ [GAA_Y822_R819P]
## Output Condition not met

## Input Tell me whether phosphorylation enrichment is at least 0.7 here: RLEPVYFVAPA [LAMC2_Y250_D247E]
## Output Condition met

## Input Tell me whether phosphorylation enrichment is at least 0.7 here: NTGDDYDLFGG [PTPN11_Y63_Y62D_YF]
## Output Condition met

## Input Tell me whether phosphorylation enrichment is at least 0.7 here: QRTMKYTTATG [MCCC1_Y41]
## Output Condition not met

## Input Tell me whether phosphorylation enrichment is at least 0.7 here: ESLRPYDVMDV [KCNQ2_Y562]
## Output Condition met

## Input Tell me whether phosphorylation enrichment is at least 0.7 here: GPKSTYISSAG [GOLGA5_Y62_A67G]
## Output Condition not met

## Input Tell me whether phosphorylation enrichment is at least 0.7 here: PTYKHYANSTQ [SLC12A3_Y70_E68K]
## Output Condition not met

## Input Tell me whether phosphorylation enrichment is at least 0.7 here: RREWFYEVIIV [BACE1_Y260_YF]
## Output Condition met

## Input Tell me whether phosphorylation enrichment is at least 0.7 here: NLVSEYQQYQD [TUBB3_Y422_D417N]
## Output Condition met

## Input Tell me whether phosphorylation enrichment is at least 0.7 here: ISIFYYAKGQP [MPZ_Y82_H81Y]
## Output Condition met

## Input Tell me whether phosphorylation enrichment is at least 0.7 here: TSPKSCPSQKH [CAP2_Y316_Y316C]
## Output Condition met

## Input Tell me whether phosphorylation enrichment is at least 0.7 here: YGSSSYGGAGG [RPA2_Y14]
## Output Condition not met

## Input Tell me whether phosphorylation enrichment is at least 0.7 here: EWKQNYEESQS [MYH7_Y1460_K1459N]
## Output Condition met

====

tested.system: Fyn (UniProt P06241)
Sequence (P06241 whole entry, looked up): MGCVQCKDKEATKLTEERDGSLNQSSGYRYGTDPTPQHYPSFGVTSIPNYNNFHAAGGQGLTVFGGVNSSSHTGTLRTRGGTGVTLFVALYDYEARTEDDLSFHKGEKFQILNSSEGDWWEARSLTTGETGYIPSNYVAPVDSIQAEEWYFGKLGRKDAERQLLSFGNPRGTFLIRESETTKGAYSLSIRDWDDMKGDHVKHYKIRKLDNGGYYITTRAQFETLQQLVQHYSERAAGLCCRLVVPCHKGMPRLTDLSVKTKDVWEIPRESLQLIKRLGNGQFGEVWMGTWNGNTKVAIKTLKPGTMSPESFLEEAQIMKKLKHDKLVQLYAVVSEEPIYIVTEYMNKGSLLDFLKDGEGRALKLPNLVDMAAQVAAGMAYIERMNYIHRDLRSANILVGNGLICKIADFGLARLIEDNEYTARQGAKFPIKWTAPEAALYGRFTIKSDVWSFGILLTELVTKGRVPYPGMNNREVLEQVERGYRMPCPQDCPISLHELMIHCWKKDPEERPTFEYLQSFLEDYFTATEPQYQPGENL
test.details: phosphorylation enrichment, bacterial display (enrichment ratio); higher = better substrate or ligand; peptides without Tyr show the background
attribute.measured: phosphorylation enrichment

Some sequences with recorded phosphorylation enrichment:
# sequence.text, result
records = [
    ("QSSALYEDRYL [ASS1_Y83]", 0.997),
    ("LSSNLYFRWLT [CNGA3_Y168_P163L_YF]", 0.595),
    ("PGVDRYSLGTS [C5orf42_Y1451]", 0.702),
    ("SVVVPYEPPDV [TP53_Y220_E224D]", 0.429),
    ("DIMDLYNQPEP [IL36A_Y96]", 0.69),
]

Memo: RPCVVYGGADI [DDX3X_Y301] , reported phosphorylation enrichment: 1.07

Memo: KRGIDYILWHM [FRMD1_Y225_R228W] , reported phosphorylation enrichment: 0.5

Memo: TLKDVYDDGKY [RPS6KA3_Y483] , reported phosphorylation enrichment: 0.58

Memo: ETGEPYRLSPE [EIF4G1_Y311] , reported phosphorylation enrichment: 0.505

Memo: SLIDMYSEVLA [OPA1_Y268_D273A] , reported phosphorylation enrichment: 0.959

====

// SH2 binding enrichment lookup, one value per entry
tested.system: Grb2 SH2 (UniProt P62993)
Sequence (P62993 whole entry, looked up): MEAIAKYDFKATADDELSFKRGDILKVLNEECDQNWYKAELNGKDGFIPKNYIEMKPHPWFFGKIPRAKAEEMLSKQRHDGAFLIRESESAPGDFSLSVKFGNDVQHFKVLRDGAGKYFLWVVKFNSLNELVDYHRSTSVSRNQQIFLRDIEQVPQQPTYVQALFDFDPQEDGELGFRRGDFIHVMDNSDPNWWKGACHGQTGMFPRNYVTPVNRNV
test.details: SH2 binding enrichment of the phosphorylated peptide, bacterial display (enrichment ratio); higher = better substrate or ligand; peptides without Tyr show the background

Some sequences with recorded SH2 binding enrichment:
# sequence.text, attribute.measured, result
measured = [
    ("GEHSIYCTVNN [CD55_Y266]", "SH2 binding enrichment", 0.598),
    ("DNEALYDICFC [TUBB3_Y208_R213C]", "SH2 binding enrichment", 0.865),
    ("ITVPAYFNDSQ [HSPA9_Y196]", "SH2 binding enrichment", 1.08),
    ("VDHFGYTKDDK [APOB_Y740]", "SH2 binding enrichment", 0.819),
    ("ANSPVYVPTTR [GATA6_Y188_S184N]", "SH2 binding enrichment", 0.834),
]

Memo: WKGSWYSMRKM [FGB_Y475] , reported SH2 binding enrichment: 1.78

Memo: FISVGYVDDTL [HLA-B_Y51_Q56L] , reported SH2 binding enrichment: 1.05

Memo: AVLSLYASGST [ACTG2_Y144_R148S] , reported SH2 binding enrichment: 1.06

Memo: CHSDDYVHISI [TSC1_Y406_L411I] , reported SH2 binding enrichment: 0.811

Memo: CEETFYTMKMN [MASP2_Y401_V405M] , reported SH2 binding enrichment: 0.771

Memo: GTYVIYVRFSG [FLNB_Y1687_G1691S] , reported SH2 binding enrichment: 1.05

Memo: KANEFYPVVII [ADAMTS18_Y765_L769I_YF] , reported SH2 binding enrichment: 0.626

Memo: TCFDKYTGSTF [FN1_Y101_N104S_YF] , reported SH2 binding enrichment: 1.29

Memo: RTTIHYNFMCN [TP53_Y234_C229R_YF] , reported SH2 binding enrichment: 0.884

====

tested.system: Jak2 (UniProt O60674)
test.details: phosphorylation enrichment, bacterial display (enrichment ratio); higher = better substrate or ligand; peptides without Tyr show the background
I would appreciate it if you labelled entries Satisfied when phosphorylation enrichment is 0.7 or higher, otherwise Not satisfied.

As a guide, the following entries are already answered.
# sequence.text, category.label
measured = [
    ("IKNSGYISQFL [EIF2AK3_Y585_R588Q_YF]", "Not satisfied"),
    ("RLSPEYKQNEI [GJB1_Y243]", "Not satisfied"),
    ("SKDSAYVTWEP", "Satisfied"),
]

## Input Tell me whether phosphorylation enrichment is at least 0.7 here: CEETFYTMKMN [MASP2_Y401_V405M]
## Output Satisfied

## Input Tell me whether phosphorylation enrichment is at least 0.7 here: YKIYRYTLNDN [FN1_Y1975_L1974R]
## Output Satisfied

## Input Tell me whether phosphorylation enrichment is at least 0.7 here: NHRNQYQALKP [CLSPN_Y887]
## Output Not satisfied

====

tested.system: FGFR3 (UniProt P22607)
Sequence (P22607 whole entry, looked up): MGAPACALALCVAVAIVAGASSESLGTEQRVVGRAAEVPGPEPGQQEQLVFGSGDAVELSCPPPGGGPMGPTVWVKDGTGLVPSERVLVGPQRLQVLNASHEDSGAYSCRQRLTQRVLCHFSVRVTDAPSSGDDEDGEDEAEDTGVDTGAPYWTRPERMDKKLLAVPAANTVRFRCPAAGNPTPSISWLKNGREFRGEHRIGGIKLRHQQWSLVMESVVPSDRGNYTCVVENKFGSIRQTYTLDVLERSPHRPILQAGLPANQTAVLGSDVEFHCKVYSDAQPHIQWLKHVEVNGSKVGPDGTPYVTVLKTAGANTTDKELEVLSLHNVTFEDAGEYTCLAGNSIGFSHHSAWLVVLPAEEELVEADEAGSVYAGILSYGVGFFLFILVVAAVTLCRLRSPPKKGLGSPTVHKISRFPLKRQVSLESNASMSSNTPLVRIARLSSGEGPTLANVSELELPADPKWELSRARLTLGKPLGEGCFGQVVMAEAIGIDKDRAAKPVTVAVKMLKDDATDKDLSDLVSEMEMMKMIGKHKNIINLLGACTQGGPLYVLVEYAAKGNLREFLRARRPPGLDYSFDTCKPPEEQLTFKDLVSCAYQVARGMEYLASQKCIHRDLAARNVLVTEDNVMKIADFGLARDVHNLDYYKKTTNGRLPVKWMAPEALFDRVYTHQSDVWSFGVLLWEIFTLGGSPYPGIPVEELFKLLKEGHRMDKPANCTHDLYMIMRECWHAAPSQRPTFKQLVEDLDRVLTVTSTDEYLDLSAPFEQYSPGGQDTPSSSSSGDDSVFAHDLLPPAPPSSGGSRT
test.details: phosphorylation enrichment, bacterial display (enrichment ratio); higher = better substrate or ligand; peptides without Tyr show the background
attribute.measured: phosphorylation enrichment
Please give only the number in your answer, with no unit.

Some sequences with recorded phosphorylation enrichment:
# sequence.text, tested.system, attribute.measured, result
records = [
    ("FRDMDYRSFPH [RBM10_Y41_R46H_YF]", "FGFR3 (UniProt P22607)", "phosphorylation enrichment", 0.449),
    ("TLKDVYDDGKY [RPS6KA3_Y483]", "FGFR3 (UniProt P22607)", "phosphorylation enrichment", 0.64),
    ("YEEDSYVKRSQ [RET_Y905]", "FGFR3 (UniProt P22607)", "phosphorylation enrichment", 0.775),
    ("AAQNCYKVTNA [TPI1_Y105_G110A]", "FGFR3 (UniProt P22607)", "phosphorylation enrichment", 0.46),
    ("VSTKVYKRFPS [BEST1_Y148_A146K]", "FGFR3 (UniProt P22607)", "phosphorylation enrichment", 0.305),
    ("SEDANYMRVSC [TTC3_Y1288_K1289M]", "FGFR3 (UniProt P22607)", "phosphorylation enrichment", 0.742),
    ("DLLNSYTENEG [HSPA4L_Y600_I601T]", "FGFR3 (UniProt P22607)", "phosphorylation enrichment", 0.759),
    ("VSRGRYRPQEC [B4GALT4_Y113]", "FGFR3 (UniProt P22607)", "phosphorylation enrichment", 0.515),
]

--- query ---
Memo: NTGDDYDLYGG [PTPN11_Y63_Y62D] , reported phosphorylation enrichment: 0.683
